Source: PubChem BioAssay (NCATS)

- ASSAY NAME: Quantitative High-Throughput drug screen in 47 multiple myeloma cell lines against the NCATS MIPE library collection: KMS11_JCRBsus cell viability assay (AID 1919873); also: nearly all actives have a fitted effect of over 50% in size
- PROTOCOL CONDITIONS: KMS11 myeloma viability, CellTiter-Glo ATP luminescence, 48 h; series mostly up to 45.8 µM
Records with an inconclusive call do not appear. Active and inactive are the calls of the source. Calls follow the shape of the dose curve; as a rule, active = well fitted cell-killing curve with a large enough effect; inconclusive = small, poorly fitted or top-dose-only effect, or effect the other way; inactive = no such curve, though single readings can be large or run the other way.
Please state which outcome applies, choosing from active, inactive

See these solved cases before continuing.
MOLECULE | LABEL VALUE
CC(Cc1ccc(O)c(O)c1)(NN)C(=O)O (stereo not given) | active
CNC(=O)c1ccc(Nc2cc(Nc3ccccc3S(=O)(=O)C(C)C)c3cc[nH]c3n2)nc1 | active

Write down the call the test reported for this molecule. Item: CC(=O)O[C@]1(C(C)=O)CC[C@H]2[C@@H]3C=C(C)C4=CC(=O)CC[C@]4(C)[C@@H]3CC[C@@]21C
inactive

Write down the call the test reported for this molecule. Item: NC(=O)Nc1sc(-c2ccc(F)cc2)cc1C(N)=O
active

Write down the call the test reported for this molecule. Item: O=c1[nH]c(=O)n([C@H]2C[C@@H](O)[C@@H](CO)O2)cc1F
active

Write down the call the test reported for this molecule. Item: C[C@H](NCc1ccc2c(c1)nc(NC(=O)c1ccc(-c3cn[nH]c3)s1)n2CCc1ccccc1)C(C)(C)C
active

Write down the call the test reported for this molecule. Item: CC(=O)O[C@H]1C[C@@H]2CC[C@H]3[C@H]4C[C@H]([N+]5(C)CCCCC5)[C@@H](OC(C)=O)[C@@]4(C)CC[C@@H]3[C@@]2(C)C[C@H]1N1CCCCC1
inactive

====

- ASSAY NAME: qHTS of pediatric cancer cell lines to identify multiple opportunities for drug repurposing: Primary screen for OHS-50 cells (AID 1347103); also: nearly all actives have a fitted effect of over 40% in size
- PROTOCOL CONDITIONS: OHS-50 osteosarcoma viability, CellTiter-Glo luminescence, 48 h; series mostly up to 57.3 µM
Inconclusive results are not listed. Active and inactive are the calls of the source. Calls come from the whole dose curve; as a rule, active = well fitted cell-killing curve with a large enough effect; inconclusive = small, poorly fitted or top-dose-only effect; inactive = no such curve, though single readings can be large or run the other way.
Please state which outcome applies, choosing from active, inactive

COMPOUND | LABEL VALUE
Cc1cnc(NC(=O)Nc2cc(Br)c(C)cc2OC[C@@H]2CNCCO2)cn1 | active

Write down the call the test reported for this compound. Item: CC(C)Oc1ccc(C(=O)N[C@H](CNC(=O)CN(C)C)Cc2ccc(-c3cn4cccc([C@H](C)O)c4n3)cc2)cc1Cl
active

Write down the call the test reported for this compound. Item: CCCNC(=O)[C@H]1O[C@H]1C(=O)N[C@H](C(=O)N1CCC[C@@H]1C(=O)OC)C(C)CC (stereo partly drawn)
active

Write down the call the test reported for this compound. Item: O=c1[nH]c(=O)n([C@H]2C[C@@H](O)[C@@H](CO)O2)cc1C=CBr
inactive

Write down the call the test reported for this compound. Item: CCCNS(=O)(=O)Nc1ncnc(OCCOc2ncc(Br)cn2)c1-c1ccc(Br)cc1
inactive

Write down the call the test reported for this compound. Item: CC(=O)C1=C(O)C=C2Oc3c(C(C)=O)c(O)c(C)c(O)c3C2(C)C1=O (stereo not drawn)
active

Write down the call the test reported for this compound. Item: CC(C)C[C@H](NC(=O)CNC(=O)c1cc(Cl)ccc1Cl)B1OC(=O)CC(CC(=O)O)(C(=O)O)O1 (stereo partly drawn)
active

Write down the call the test reported for this compound. Item: Nc1ccn(C2CO[C@H](CO)O2)c(=O)n1 (stereo partly drawn)
inactive

Write down the call the test reported for this compound. Item: COC(=O)[C@H](CCCN=C(N)N)NS(=O)(=O)c1ccc(C)cc1
inactive

Write down the call the test reported for this compound. Item: NC(=O)Nc1cc(-c2ccc(CN3CCOCC3)cc2)sc1C(N)=O
active
